# TESTED_ON: Carbonic anhydrase 2 (Homo sapiens)
# ASSAY_PROCEDURE: compounds binding carbonic anhydrase 2 – biochemical, small-molecule microarray, Alexa647-labelled CAII, profiling panel (AID 1122)
# TEST_CONDITIONS: CAII-A647 binding fluorescence, higher = more signal
RECORDED_METRIC: composite z-score

input: API: value(readout= composite z-score, system= Carbonic anhydrase 2 (Homo sapiens), query= NC(=O)N1C(=O)C2C(C1=O)C1C=C(CCCO)C2C(C2CC2)N1Cc1sc2ccccc2c1Cl (configuration not stated) )
output: 0.616

* * *

# TESTED_ON: Dihydroorotate dehydrogenase (quinone), mitochondrial (Plasmodium falciparum (isolate 3D7)) (UniProt Q08210)
# Sequence (Q08210 whole entry, looked up): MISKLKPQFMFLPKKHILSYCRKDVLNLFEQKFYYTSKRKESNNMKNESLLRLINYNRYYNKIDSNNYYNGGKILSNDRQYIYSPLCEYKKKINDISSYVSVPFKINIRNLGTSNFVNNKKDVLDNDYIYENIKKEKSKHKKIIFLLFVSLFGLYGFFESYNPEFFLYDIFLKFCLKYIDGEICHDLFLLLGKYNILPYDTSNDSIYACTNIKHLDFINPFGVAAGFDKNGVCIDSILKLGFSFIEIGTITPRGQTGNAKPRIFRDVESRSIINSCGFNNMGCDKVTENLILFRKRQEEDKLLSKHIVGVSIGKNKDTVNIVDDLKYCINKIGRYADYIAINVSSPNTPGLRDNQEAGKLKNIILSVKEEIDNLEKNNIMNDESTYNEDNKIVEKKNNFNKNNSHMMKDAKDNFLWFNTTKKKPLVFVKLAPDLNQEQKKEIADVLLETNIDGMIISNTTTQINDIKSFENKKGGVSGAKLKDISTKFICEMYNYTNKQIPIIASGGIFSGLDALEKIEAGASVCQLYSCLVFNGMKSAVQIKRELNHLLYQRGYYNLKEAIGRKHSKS
# ASSAY_PROCEDURE: inhibition of P. falciparum DHODH – biochemical, C-terminal His tag, absorbance 600 nm, primary screen (AID 1175);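 note: recombinant parasite enzyme with a five histidine tag at its C terminus; test concentration not given here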
# TEST_CONDITIONS: PfDHODH enzyme, DCIP absorbance 600 nm; higher = more signal, called active from +8 up or from −8 down
RECORDED_METRIC: composite z-score
Simply state the number, no unit and no words.

COMPOUND	composite z-score
COC(=O)[C@H](Cc1ccc(O)cc1)N[C@@H](/C=C/C1CC1)[C@H](O)Cc1ccccc1	-0.23
CC[C@@H]1C=C(C(=O)O)[C@H](c2ccc(OC)cc2)N1S(=O)(=O)c1ccc(C)cc1	-1.09
C=CCOC(=O)[C@H]1[C@@H]2C(=O)O[C@@H](c3ccccc3)[C@@H](c3ccccc3)N2[C@@H](c2ccc(OCCOC(=O)[C@H]3C[C@H]4C(=O)N[C@@H](CC(C)C)C(=O)N4[C@H]3c3ccc(O)cc3)cc2)[C@]12C(=O)Nc1ccccc12	-0.976
CCCC[C@H]1C[C@@H]1[C@@H]1N(C(C)=O)[C@H](c2cccc(OC)c2)CC12CC2	0.348

input: I would be grateful if you could share the reported composite z-score for NC(=O)N1C(=O)C2C(C1=O)C1C=C(CCCO)C2C(c2ccc(CN3CCCC3)cc2)N1Cc1sc2ccccc2c1Cl (configuration not stated) .
output: 0.574

input: Entry `COC(=O)[C@@]1(Cc2ccc(F)cc2)[C@H]2c3cc(C(=O)N4CCCC4)n(CCc4ccccn4)c3C[C@H]2CN1C(=O)c1ccccc1` : reported composite z-score = ?
output: 0.224

input: Query: composite z-score; subject: `C=C(CCCC)/C(=C/C[C@H](OC(=O)c1ccncc1)c1ccccc1OCCO)c1cc(C(=O)OC)ccc1OC`
output: -1.36

* * *

# ASSAY_PROCEDURE: basal CRE-LacZ reporter activity in PC12 – cell-based, unstimulated, primary screen (AID 1145)
# TEST_CONDITIONS: no forskolin, luminescence, 4.5 h, called active from +8 up or from −8 down
Activity calls are given as the source filed them.
# valid calls are active, inactive; nothing else

MOLECULE	CATEGORY_LABEL
O=C1O[C@@H](c2ccccc2)[C@@H](c2ccccc2)N2[C@@H](c3ccc(OCCO)cc3)[C@]3(C(=O)Nc4ccc(C#CCCO)cc43)[C@@H](C(=O)O)[C@H]12	inactive
Cc1ccc(S[C@]2(C(=O)NCCCN(C)C)CC(=O)N(C3Cc4ccccc4C3)[C@@H]2c2ccc(CO)cc2I)cc1	inactive
Cc1ccc(S[C@]2(C(=O)NC3CC3)CC(=O)N(C(C)C)[C@@H]2c2ccc(CO)cc2I)cc1	inactive

input: Given `C=CCN1Cc2ccccc2[C@H]2OC(c3ccc(OCCCO)cc3)=N[C@@]2(CCS(=O)(=O)c2ccccc2)C1=O` , state the outcome it received in this test.
output: inactive

input: What classification did `C=C(CCCC)C(=O)CC[C@H](OC(=O)c1ccccc1-c1ccccc1C(=O)O)c1ccc(OCCO)cc1` end up with in this test?
output: inactive

input: What was the test verdict on [N-]=[N+]=Nc1ccccc1[C@H]1OC(c2ccc(OCCCO)cc2)=N[C@@]1(Cc1ccccc1)C(=O)NCC(O)CO (stereo partly drawn) ?
output: inactive

input: I would be grateful if you could indicate the recorded call for `COc1ccc([Si](C)(C)[C@@H]2[C@@H](CC(=O)N(CCO)Cc3ccccc3)O[C@]3(C(=O)N(Cc4ccc(I)cc4)c4ccccc43)[C@H]2C)cc1` .
output: inactive

* * *

# TESTED_ON: Luciferin 4-monooxygenase (Photinus pyralis)
# ASSAY_PROCEDURE: inhibition of purified Photinus pyralis luciferase – biochemical, luminescence, purified enzyme, 2006 set, primary screen (AID 1141);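 note: cell-free assay with purified firefly luciferase at 100 ng per well in PBS; test concentration not given here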
# TEST_CONDITIONS: purified firefly luciferase, SteadyGlo luminescence, 30 min; higher = more signal, called active from +8 up or from −8 down
Readings of z-score for the listed compounds
Please give only the number in your answer, with no unit.

COMPOUND	OBSERVED
C=CC[C@@]12N=C(c3ccc(OCCCO)cc3)O[C@@H]1c1ccccc1N(CCC)C2=O	-2.23
C=CC[C@@]1(C(=O)N(C)C)N=C(c2ccc(OCCCO)cc2)O[C@@H]1c1ccccc1CN=[N+]=[N-]	-0.84
CN(C)CCCCNC(=O)[C@H]1C[C@H]2C(=O)NCC(=O)N2[C@H]1c1ccc(O)cc1	0.836
O=C(NCc1ccccc1)[C@@H]1c2ccccc2C(=O)N(Cc2ccc(OC(F)(F)F)cc2)[C@H]1c1ccc(CO)cc1	-0.828
COCCOC(=O)N1C(=O)[C@@]2(c3cc(C#CCC(C(=O)OC)C(=O)OC)ccc31)[C@H](C(N)=O)[C@H]1C(=O)O[C@H](c3ccccc3)[C@H](c3ccccc3)N1[C@@H]2c1ccc(O)cc1	-0.878

input: For C=CCC(OC(C)=O)[C@@H]1[C@@H](N(Cc2cccc3ccccc23)C(=O)Cc2ccc(OC)cc2)c2cc(OCCCO)ccc2N1C(=O)Cc1ccc2ccccc2c1 (some centres not stated) , what is its reported z-score?
output: 0.969

input: Can you share its z-score? I mean this compound: CC1CC/C=C\[C@H]2OC34C=CCN(c5ccc(Cl)cc5)C(=O)[C@H]3N(CCCCCCO)C(=O)[C@]4(C)C2C(=O)O1 (some centres not stated)
output: -1.55

* * *

# TESTED_ON: Pro-neuregulin-1, membrane-bound isoform (Homo sapiens) (UniProt Q02297)
# Sequence (Q02297 whole entry, looked up, canonical isoform): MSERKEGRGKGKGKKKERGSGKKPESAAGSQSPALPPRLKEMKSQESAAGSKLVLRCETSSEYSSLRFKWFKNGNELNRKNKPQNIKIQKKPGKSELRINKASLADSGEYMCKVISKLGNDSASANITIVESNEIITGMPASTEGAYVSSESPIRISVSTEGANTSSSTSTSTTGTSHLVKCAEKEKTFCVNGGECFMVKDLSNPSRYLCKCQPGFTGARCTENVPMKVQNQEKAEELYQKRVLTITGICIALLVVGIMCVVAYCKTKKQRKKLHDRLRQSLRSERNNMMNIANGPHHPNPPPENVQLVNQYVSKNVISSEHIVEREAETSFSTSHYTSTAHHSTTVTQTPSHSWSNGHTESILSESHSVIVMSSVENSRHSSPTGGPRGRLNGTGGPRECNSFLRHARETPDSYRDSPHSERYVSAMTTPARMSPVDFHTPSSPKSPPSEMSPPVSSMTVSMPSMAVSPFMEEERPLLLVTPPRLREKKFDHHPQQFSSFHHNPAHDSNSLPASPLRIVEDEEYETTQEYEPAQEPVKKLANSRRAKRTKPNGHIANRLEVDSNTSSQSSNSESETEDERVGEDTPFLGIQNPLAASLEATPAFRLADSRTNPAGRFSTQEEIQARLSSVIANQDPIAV
# ASSAY_PROCEDURE: small molecules binding neuregulin-1 protein – biochemical, small-molecule microarray, fluorescence 635/667, psychiatric disease protein project, primary screen (AID 1075);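 note: score combines 667 nm spot fluorescence with signal to noise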
# TEST_CONDITIONS: NRG1 binding, 635 nm fluorescence, higher = more signal
RECORDED_METRIC: composite z-score
Quick one: just the number, no unit, thanks!

Record excerpt, results attached:
In [3]: df
Out[3]:
                                   compound    recorded_metric  observed
0  C=C(COC)/C(=C/C[C@@H](OC(C)=O)c1ccccc1OCCO)c1cnc2ccccc2c1  composite z-score      1.23
1  C=CC[C@@]1(C(=O)N(C)C)N=C(c2ccc(OCCCO)cc2)O[C@@H]1c1ccccc1CN=[N+]=[N-]  composite z-score      1.68
2  [N-]=[N+]=NCc1ccccc1[C@@H]1OC(c2ccc(OCCCO)cc2)=N[C@]1(Cc1ccccc1N=[N+]=[N-])C(=O)NCC(O)CO (some centres undefined)  composite z-score      1.99

Here's the next entry for you.
input: Entry `C=C(CCCC)C(=O)CC[C@@H](OC(=O)c1ccccc1-c1ccccc1C(=O)O)c1ccccc1OCCO` has what composite z-score?
output: -0.0918

* * *

# ASSAY_PROCEDURE: budding yeast growth changes without added modifier – OD600, strain BY4716, 24 h, basal condition, primary screen (AID 1173)
# TEST_CONDITIONS: S. cerevisiae BY4716 growth, OD600, 24 h; higher = more signal, called active from +8 up or from −8 down
The recorded z-score of each item maps onto one of these classes: bottom bin: < -0.7; middle bin: ≥ -0.7 and < 0.7; top bin: ≥ 0.7

Below, 5 molecules whose answers are already recorded.
MOLECULE	CATEGORY_LABEL
Cc1ccccc1C(O)C1C=CC2C(=O)N(c3ccccc3)C(=O)C2N1Nc1ccccc1 (stereo not given)	bottom bin
C=CCC(OC(C)=O)[C@@H]1[C@@H](N(Cc2ccc(-c3cccc(C(F)(F)F)c3)o2)C(=O)Cc2ccc(F)cc2)c2cc(OCCCO)ccc2N1C(=O)Cc1ccc2ccccc2c1 (stereo not given in full)	middle bin
O=C1C2C=CC(C(O)c3cccs3)N(Nc3ccc([N+](=O)[O-])cc3)C2C(=O)N1c1ccccc1 (stereo not given)	middle bin
O=C(NC1CC1)[C@@H]1c2ccccc2C(=O)N(CC23CC4CC(CC(C4)C2)C3)[C@H]1c1ccc(CO)cc1	middle bin
CN(C)CCCCNC(=O)[C@H]1C[C@H]2C(=O)N3CCC[C@H]3C(=O)N2[C@H]1c1cccc(OCCO)c1	top bin

input: Category of CCOC(=O)C1=CCC(c2cc3ccccc3[nH]2)N(CCN2CC(C(=O)OCC)=CCC2c2cc3ccccc3[nH]2)C1 (stereo not given) :
output: top bin

input: Bin? `COC(=O)[C@]1(Cc2ccccc2)N=C(c2ccc(OCCCO)cc2)O[C@@H]1c1ccccc1CN=[N+]=[N-]`
output: bottom bin

input: For the record `COCCOC(=O)N1C(=O)[C@@]2(c3ccccc31)[C@H](C(=O)N1CCN(c3ncccn3)CC1)[C@H]1C(=O)O[C@H](c3ccccc3)[C@H](c3ccccc3)N1[C@@H]2c1ccccc1OCCO` , report the class its z-score corresponds to.
output: top bin

input: Pick a category. Item: CCC(CC)C(O)C1C=CC2C(=O)N(c3ccccc3)C(=O)C2N1Nc1ccccc1F (stereo not given)
output: middle bin

input: For this molecule, which bin applies? `O=C1O[C@H](c2ccccc2)[C@H](c2ccccc2)N2[C@H]1[C@@H](C(=O)N1CCN(c3ncccn3)CC1)[C@]1(C(=O)Nc3ccc(C#CCCO)cc31)[C@H]2c1ccc(O)cc1`
output: middle bin

input: Note: place this molecule into its band. Item: `C=C1C(=O)C=C2CN(C(=O)c3ccccc3)[C@@](Cc3ccc(OC)cc3)(C(=O)OC)[C@@H]12`
output: top bin

input: Categorize the following entry: CC(C)(C)OC(=O)CC[C@]1(C(=O)NCC(O)CO)N=C(c2ccc(OCCCO)cc2)O[C@H]1c1ccccc1N=[N+]=[N-] (stereo not given in full)
output: middle bin

input: Bin this entry: `CCCC[C@H]1OB(O)C[C@H]2C1=C(COc1ccccc1)C[C@H]1C(=O)C=CC(=O)[C@H]12`
output: bottom bin
